test system: progranulin; test: Progranulin induction cellular assay (ELISA of secreted mouse PGRN); type: cell-based; settings: Mus musculus, BV-2, read-out: EC50 μM
We label by threshold. Values of EC50 strictly beneath 0.1 µM are met. Values of 0.1 µM and up are not met.

{"structure.string": "C=CCO[C@H]1CO[C@@H](C(=O)N2CCc3ccccc3[C@@H]2c2ccc(F)cc2)C[C@@H]1N", "classification": "met"}
{"structure.string": "C#CCO[C@H]1CO[C@@H](C(=O)N2CCc3ccccc3[C@@H]2c2ccc(F)cc2)C[C@@H]1N", "classification": "met"}
{"structure.string": "COC[C@]1(N)CC[C@@H](C(=O)N2CCc3ccccc3[C@@H]2c2ccc(F)cc2)OC1", "classification": "not met"}
{"structure.string": "CCNC[C@@]1(O)CO[C@H](C(=O)N2CCc3ccccc3[C@@H]2c2ccc(F)cc2)C1", "classification": "not met"}
{"structure.string": "CC(=O)N[C@H]1CO[C@@H](C(=O)N2CCc3ccccc3[C@@H]2c2ccc(F)cc2)C[C@@H]1N", "classification": "met"}
{"structure.string": "CCNC[C@]1(O)CO[C@H](C(=O)N2CCc3ccccc3[C@@H]2c2ccc(F)cc2)C1", "classification": "not met"}
{"structure.string": "COC[C@]1(N)CC[C@H](C(=O)N2CCc3ccccc3[C@@H]2c2ccc(F)cc2)OC1", "classification": "met"}
{"structure.string": "COC[C@@]1(N)CC[C@@H](C(=O)N2CCc3ccccc3[C@@H]2c2ccc(F)cc2)OC1", "classification": "not met"}
{"structure.string": "CC(=O)N[C@@H]1CO[C@@H](C(=O)N2CCc3ccccc3[C@@H]2c2ccc(F)cc2)C[C@@H]1N", "classification": "met"}
{"structure.string": "COC[C@@]1(N)CC[C@H](C(=O)N2CCc3ccccc3[C@@H]2c2ccc(F)cc2)OC1", "classification": "met"}
